Tested on: U2OS
Assay: Multiplex assay against U2OS
Assay type: toxicity, cell-based
Conditions: human, 12 h, 1 µM, compound concentration 1 uM, replicate 1
Form field: Population Apoptotic (%) (one value per entry).

CCCOc1ccc2[nH]cc(C3=CCNCC3)c2n1.Cl    80%
Cc1onc(-c2ccccc2Cl)c1C(=O)N(C)c1ccc(Cl)cc1    82%
Cl.N=C(N)NC(=O)Cc1c(Cl)cccc1Cl [GUANFACINE HYDROCHLORIDE]    80%
Cc1c(CC(=O)O)c2cccnc2n1Cc1ccc(S(C)(=O)=O)cc1C(F)(F)F [FEVIPIPRANT]    80%

// below: Population Apoptotic (%) requested for another compound
INPUT: Complete the entry with Population Apoptotic (%) for `CN1CCN(c2cc(-c3ccccc3)nc(N)n2)CC1`
OUTPUT: 80%
